- Measured On: human ether-à-go-go-related gene (hERG) potassium channel (human, UniProt Q12809)
- Sequence (Q12809 whole entry, looked up): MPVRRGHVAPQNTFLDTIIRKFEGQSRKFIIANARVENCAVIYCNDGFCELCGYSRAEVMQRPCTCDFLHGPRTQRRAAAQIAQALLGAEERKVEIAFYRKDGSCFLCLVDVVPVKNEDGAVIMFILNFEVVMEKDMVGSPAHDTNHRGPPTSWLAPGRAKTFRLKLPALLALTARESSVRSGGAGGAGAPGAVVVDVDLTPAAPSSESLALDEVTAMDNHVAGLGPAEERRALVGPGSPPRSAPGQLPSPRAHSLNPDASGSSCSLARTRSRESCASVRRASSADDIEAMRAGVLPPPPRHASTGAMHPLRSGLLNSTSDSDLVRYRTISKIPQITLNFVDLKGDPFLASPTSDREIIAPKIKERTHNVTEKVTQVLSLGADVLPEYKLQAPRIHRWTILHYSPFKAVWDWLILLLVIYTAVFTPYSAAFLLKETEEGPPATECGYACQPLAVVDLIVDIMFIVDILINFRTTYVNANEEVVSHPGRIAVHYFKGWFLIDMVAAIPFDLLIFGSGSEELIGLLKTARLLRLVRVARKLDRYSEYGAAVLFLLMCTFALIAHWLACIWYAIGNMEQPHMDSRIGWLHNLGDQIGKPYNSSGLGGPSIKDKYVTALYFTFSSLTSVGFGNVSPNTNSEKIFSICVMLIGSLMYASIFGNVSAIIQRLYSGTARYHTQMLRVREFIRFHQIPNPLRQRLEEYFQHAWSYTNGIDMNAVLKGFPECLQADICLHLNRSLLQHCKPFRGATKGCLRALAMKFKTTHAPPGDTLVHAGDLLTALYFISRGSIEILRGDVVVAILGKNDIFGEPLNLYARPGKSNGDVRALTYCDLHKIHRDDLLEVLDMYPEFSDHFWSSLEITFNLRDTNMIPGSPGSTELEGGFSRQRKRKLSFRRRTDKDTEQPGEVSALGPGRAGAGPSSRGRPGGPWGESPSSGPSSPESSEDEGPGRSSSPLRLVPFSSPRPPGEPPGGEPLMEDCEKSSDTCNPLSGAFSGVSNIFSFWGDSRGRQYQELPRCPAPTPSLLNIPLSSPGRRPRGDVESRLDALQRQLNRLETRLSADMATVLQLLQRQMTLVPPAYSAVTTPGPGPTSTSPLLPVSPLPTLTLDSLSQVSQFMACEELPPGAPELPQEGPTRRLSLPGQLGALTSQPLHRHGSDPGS
- Method Summary: primary screen, population patch clamp on CHO cells stably expressing hERG; higher = less effect of the substance;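 note: peak tail current of the secondary pulse compared with the same well before compound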
The whole screen tested about 310,000 compounds, of which about 14,000 (4.5%) showed an effect of 50% or more. The effect is printed as a negative number. Many of the other results were omitted from the sample, so strong results are more common in it than they were.
hERG current change (%, negative = inhibition) at 10uM values, listed per item
Measured Metric: hERG current change (%, negative = inhibition) at 10uM (%)

{"Compound": "CCN(C(=O)CN1CCN(S(=O)(=O)c2ccccc2C(F)(F)F)CC1)c1c(N)n(Cc2ccccc2)c(=O)[nH]c1=O", "Measured Number": 13.6}
{"Compound": "CC(C)C[C@H](NC(=O)N1c2ccccc2NC(=O)[C@@H]1C(C)C)C(=O)N[C@@H](Cc1ccccc1)C(=O)O", "Measured Number": -2.11}
{"Compound": "Cc1ccc(NC(=O)C(C)Sc2nnc(C)n2C2CC2)cc1S(=O)(=O)N1CCOCC1 (stereo not shown)", "Measured Number": -13.9}
{"Compound": "CCOC(=O)C1(Cc2ccc(Cl)cc2)CCN(CCCn2cccn2)CC1", "Measured Number": -74.8}
{"Compound": "Cc1ccc(SCc2nc(-c3ccccc3)no2)cc1", "Measured Number": 2.3}
{"Compound": "O=C(CN1CCN(C(C(=O)Nc2ccc(Cl)cc2C(F)(F)F)c2ccccc2)CC1)NC1CC1 (stereo not shown)", "Measured Number": -70.2}
{"Compound": "CCCC(=O)N1CCC(CCC(=O)NC2CC2)CC1", "Measured Number": 7.63}
{"Compound": "CCn1c(NCc2ccc(N(C)C)cc2)nc2ccccc21", "Measured Number": -41.2}
{"Compound": "Cc1cc(O)cc(=O)n1Cc1ccccc1", "Measured Number": 12}
{"Compound": "CCOC(=O)C1(Cc2ccc(Cl)cc2)CCN(C(C)Cc2ccc(O)c(OC)c2)CC1 (stereo not shown)", "Measured Number": -70.8}
{"Compound": "Cc1ccc(OCc2nnc(SCC(=O)c3ccccc3)n2-c2ccccc2)cc1", "Measured Number": 1.75}
{"Compound": "O=C(CN(C(=O)c1csnn1)c1ccc(F)cc1)NCCc1ccccc1", "Measured Number": 7.95}
{"Compound": "O=C(COC(=O)c1ccc(F)cc1F)NCCNC(=O)COC(=O)c1ccc(F)cc1F", "Measured Number": 16.8}
{"Compound": "CC(Sc1nnc(C2CC2)n1C1CC1)C(=O)Nc1ccccc1C#N (stereo not shown)", "Measured Number": -10}
{"Compound": "Cc1c(CN(C)C)c2c(n1Cc1ccccc1)C(=O)c1ccccc1-2.Cl", "Measured Number": -75.6}
{"Compound": "CC(Sc1nnc(C2CC2)n1C1CC1)C(=O)Nc1cccc(S(=O)(=O)N(C)C)c1 (stereo not shown)", "Measured Number": -19.5}
{"Compound": "Cc1cc(C)cc(NC(=O)C(c2ccccc2)N2CCN(CC(=O)NC3CC3)CC2)c1 (stereo not shown)", "Measured Number": -28.3}
{"Compound": "O=C(NCc1ccc2c(c1)OCO2)C1CCCN1C(=O)Nc1ccc(Cl)cc1 (stereo not shown)", "Measured Number": -17.4}
{"Compound": "CC(=O)N(Cc1ccco1)Cc1cc2cccc(C)c2n2nnnc12", "Measured Number": -3.36}
{"Compound": "COC(=O)c1ccc(-c2nc3ccccc3[nH]2)cc1", "Measured Number": 17.8}
{"Compound": "Cc1cc(=O)n(Cc2ccccc2)c2ccccc12", "Measured Number": 4.79}
{"Compound": "CCc1ccccc1NC(=O)Cn1nnc(C(=O)NCc2cccs2)c1N", "Measured Number": 13.8}
{"Compound": "CCOC(=O)C1(Cc2cccc(OC)c2)CCN(C(C)CC(C)(C)O)CC1 (stereo not shown)", "Measured Number": -28.5}
{"Compound": "O=C(N/N=C/c1cccs1)c1cncc(Br)c1", "Measured Number": -10.1}
{"Compound": "COc1ccc(Cl)cc1NC(=O)C(C)Sc1nnc(C2CC2)n1C1CC1 (stereo not shown)", "Measured Number": -69.5}
{"Compound": "O=c1oc2ccccc2c2c1ncn2C1CCCCC1", "Measured Number": -51.7}
{"Compound": "Cc1c(CN(C)C)c2c(n1Cc1ccccc1)C(=O)c1ccc(Br)cc1-2.Cl", "Measured Number": -74.5}
{"Compound": "O=C(CN1C(=O)S/C(=C\\c2ccc(C(=O)O)cc2)C1=O)Nc1ccccc1", "Measured Number": 19}
{"Compound": "CC(C)c1ccc(N(CC(=O)NCCc2ccccc2)C(=O)c2csnn2)cc1", "Measured Number": -60}
{"Compound": "O=C(CN(C(=O)c1csnn1)c1ccccc1)NCCc1ccccc1", "Measured Number": -15}
{"Compound": "Cc1ccc(NC(=O)C(C)Sc2nnc(C3CC3)n2C2CC2)cc1S(=O)(=O)N1CCOCC1 (stereo not shown)", "Measured Number": -51}
{"Compound": "CCOC(=O)C1(Cc2cccc(F)c2)CCN(CC(O)CO)CC1 (stereo not shown)", "Measured Number": 14.5}
{"Compound": "COc1cccc(NC(=O)C(C)Sc2nnc(C3CC3)n2C2CC2)c1 (stereo not shown)", "Measured Number": -67}
{"Compound": "CCOC(=O)C1(Cc2cccc(F)c2)CCN(CCCn2cccn2)CC1", "Measured Number": -74.6}
{"Compound": "Cc1ccc(S(=O)(=O)CCC(=O)Nc2ccc3nc(C)sc3c2)cc1", "Measured Number": 3.75}
{"Compound": "CCC(CC)COC(=O)C1=C(C)NC(=O)NC1c1ccc([N+](=O)[O-])cc1 (stereo not shown)", "Measured Number": 11.6}
{"Compound": "Cc1ccc(N(CC(=O)NCCc2ccccc2)C(=O)c2csnn2)cc1", "Measured Number": -15.4}
{"Compound": "Cc1c(CN(C)C)c2c(n1C)C(=O)c1ccc(Br)cc1-2.Cl", "Measured Number": -37.3}
{"Compound": "COc1ccc(NC(=O)C(C)Sc2nnc(C3CC3)n2C2CC2)cc1 (stereo not shown)", "Measured Number": -13.3}
{"Compound": "CCCCC(=O)Nc1cccc(NC(=S)NC(=O)C(C)C)c1", "Measured Number": 3.44}
